Please respond with reported log2 fold change of degron read counts for every item in the list.
- TARGET SYSTEM: T1, CRBN, Q96SW2;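 note: pooled lentiviral library of zinc finger degron-EGFP fusions in mCherry-positive Jurkat cells, FACS-sorted after compound exposure, with degron abundance counted by next-generation sequencing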
- T1 chain: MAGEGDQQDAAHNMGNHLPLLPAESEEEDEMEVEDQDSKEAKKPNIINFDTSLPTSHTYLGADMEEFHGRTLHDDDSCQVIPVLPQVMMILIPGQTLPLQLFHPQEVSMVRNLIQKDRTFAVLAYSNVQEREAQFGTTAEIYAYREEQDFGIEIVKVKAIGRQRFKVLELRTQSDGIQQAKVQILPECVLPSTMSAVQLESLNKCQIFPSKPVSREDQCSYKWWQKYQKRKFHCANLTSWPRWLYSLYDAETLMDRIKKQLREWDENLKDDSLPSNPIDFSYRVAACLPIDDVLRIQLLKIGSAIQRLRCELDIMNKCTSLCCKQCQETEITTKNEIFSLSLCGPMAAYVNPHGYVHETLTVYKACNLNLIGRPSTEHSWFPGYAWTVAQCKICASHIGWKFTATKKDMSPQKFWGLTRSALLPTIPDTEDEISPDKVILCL
- EXPERIMENT NOTES: log2 fold change of degron read counts, EGFP-low vs EGFP+ sorted cells (limma voom), compound-induced degradation; higher = more compound-induced degradation of the degron-EGFP fusion; degrons are variants of IKZF1/3 zinc finger 2; compound dose not given here
- STATED CONDITIONS: Jurkat; 18 h; compound: thalidomide
Whole data set: some 8,300 sequences, median “log2 fold change of degron read counts, EGFP-low vs EGFP+ sorted cells (limma voom), compound-induced degradation” near -1.1, cut for the highest 2% near 3.2. Many of the other results were omitted from the sample, so the highest values are more common in it than they were.

Known results for sequences:
[[record]]
sequence_data = "LKCPICGFTCTQKGNLLRHIKL [46L_47K_49P_50I_52G_53F_54T_55C_67L_, Q9UKT9]"
result = 0.662

[[record]]
sequence_data = "FDCEVCGAGFTQKGNLLRHIKL [46F_47D_49E_50V_52G_53A_54G_55F_67L_, Q9UKT9]"
result = -0.721


// for each sequence in input: emit log2 fold change of degron read counts
1. FDCNICGAIFTQKGNLLRHIKL [46F_47D_49N_50I_52G_53A_54I_55F_67L_, Q9UKT9]
2. FYCPICGHMFTQKGNLLRHIKL [46F_47Y_49P_50I_52G_53H_54M_55F_67L_, Q9UKT9]
3. FKCEQCGAVFTQKGNLLRHIKL [46F_47K_49E_50Q_52G_53A_54V_55F_67L_, Q9UKT9]
4. FNCPVCGAVFTQKGNLLRHIKL [46F_47N_49P_50V_52G_53A_54V_55F_67L_, Q9UKT9]
5. LVCPICGFTCTQKGNLLRHIKL [46L_47V_49P_50I_52G_53F_54T_55C_67L_, Q9UKT9]
6. LACPICGFTCTQKGNLLRHIKL [46L_47A_49P_50I_52G_53F_54T_55C_67L_, Q9UKT9]

0.319
-1.34
-3.19
0.198
3.21
2.61

// for each sequence in input: emit log2 fold change of degron read counts
1. LTCPICGFTCTQKGNLLRHIKL [46L_47T_49P_50I_52G_53F_54T_55C_67L_, Q9UKT9]
2. FQCEVCGAGFTQKGNLLRHIKL [46F_47Q_49E_50V_52G_53A_54G_55F_67L_, Q9UKT9]

3.44
3.21

// for each sequence in input: emit log2 fold change of degron read counts
1. FKCNQCGRHFTQKGNLLRHIKL [46F_47K_49N_50Q_52G_53R_54H_55F_67L_, Q9UKT9]
2. FRCPICGATFTQKGNLLRHIKL [46F_47R_49P_50I_52G_53A_54T_55F_67L_, Q9UKT9]
3. FHCEVCGAGFTQKGNLLRHIKL [46F_47H_49E_50V_52G_53A_54G_55F_67L_, Q9UKT9]
4. FHCDQCGAPFTQKGNLLRHIKL [46F_47H_49D_50Q_52G_53A_54P_55F_67L_, Q9UKT9]
5. LSCPICGFTCTQKGNLLRHIKL [46L_47S_49P_50I_52G_53F_54T_55C_67L_, Q9UKT9]
6. FQCDVCGAAFTQKGNLLRHIKL [46F_47Q_49D_50V_52G_53A_54A_55F_67L_, Q9UKT9]

1. -2.39
2. 1.12
3. -0.276
4. -2.97
5. 2.59
6. 2.84
